Quick list: growth per entry.
- System: SK-MEL-28 melanoma
- experiment.notes: NCI-60 one-dose screen, 48 h (100 = growth as untreated, 0 = no growth, -100 = all killed)
- run.parameters: 10 µM unless noted
- Method: Growth inhibition of the SK-MEL-28 human tumor cell line is measured as a screen for anti-cancer activity. Cells are grown in 96 well plates and exposed to the test compound for 48 hours. Compounds are tested at a single concentration, which is 10^-5 M for most compounds. The reported endpoint is percent growth (GI% or GIPRCNT), where numbers from 0 - 100% represent growth inhibition, and numbers from -100% - 0 represent cell death. For example, a value of 40 represents 60% growth inhibition. […]
About 83,000 compounds went through this panel and 20% of them were active in at least one assay; those are over-represented in the sample as a whole. The source made the active and inactive calls. Rule for the calls: active = growth percent below 10; inactive = the rest.

Please give the measured growth for this compound: `CC1(C)NCCC[C@]2(C)[C@H]3CC[C@@H]4[C@H]5[C@H](C(=O)/C=C/c6ccco6)CC[C@]5(CO)CC[C@@]4(C)[C@]3(C)CC[C@@H]12`
104% (inactive)

Another: `CCOC(=O)Oc1c(OC)cc(C(=O)c2ccc(OC)c(OC(=O)CCl)c2OC)cc1OC`
47.4% (inactive)

Another: `COc1ccc(C(=O)/C=C/c2cc3ccccc3n3nnnc23)cc1`
110% (inactive)

Another: `CCCCC[n+]1ccc(SCC(=O)N(C)c2ccc(Oc3ccccc3)cc2)c2ccccc21`
108% (inactive)

Another: `O=C(CCN1CCCC1)Nc1ccc2c(Nc3ccc(Br)cc3)c3ccccc3nc2c1`
-28.6% (active)

====

- System: SR leukemia
- experiment.notes: NCI-60 one-dose screen, 48 h
- run.parameters: 10 µM unless noted
- Experimental: Growth inhibition of the SR human tumor cell line is measured as a screen for anti-cancer activity. Cells are grown in 96 well plates and exposed to the test compound for 48 hours. Compounds are tested at a single concentration, which is 10^-5 M for most compounds. The reported endpoint is percent growth (GI% or GIPRCNT), where numbers from 0 - 100% represent growth inhibition, and numbers from -100% - 0 represent cell death. For example, a value of 40 represents 60% growth inhibition. […]
The panel holds about 83,000 compounds, 20% with a hit somewhere; the sample as a whole holds those more often. Active and inactive are the calls of the source. The calls were made as follows: active = growth percent below 10; inactive = the rest.
Can you answer with just one of these options? active, inactive

# compound, assigned.label
measured = [
    ("O=c1ccc(-c2nc(N3CCOCC3)c3ccccc3n2)c[nH]1", "inactive"),
    ("CCCCCN1C=C/C(=C\\C(=O)N2CCCc3ccccc32)c2ccccc21", "inactive"),
    ("CCCOc1ccc(/C=N/Nc2cc(C)nc3ccc(Br)cc23)cc1", "active"),
]

I would be grateful if you could indicate the recorded call for `COc1ccccc1/C=C1\Oc2cc(OCCN3CCCC3)ccc2C1=O` .
active

Another: NC1[C@H](c2c[nH]c3ccccc23)c2c([nH]c3ccccc23)[C@H]1c1c[nH]c2ccccc12 (stereo partly specified)
inactive

Another: `CCOC(=O)c1nc2c3ccccc3ccn2c1C(=O)OCC`
inactive

====

- System: SNB-19 CNS
- experiment.notes: NCI-60 one-dose screen, 48 h (100 = growth as untreated, 0 = no growth, -100 = all killed)
- run.parameters: 10 µM unless noted
The panel holds about 83,000 compounds, 20% with a hit somewhere; the sample as a whole holds those more often.
Label YES when growth is strictly below 70%; at or above that, label NO.

# compound, subject.of.test, assigned.label
measured = [
    ("Cc1cccc(NC(=O)Nc2ccc(-n3cnc4cc(-c5ccc(O)cc5)ccc43)cc2)c1", "SNB-19 CNS", "YES"),
    ("CC(Sc1nc2ccccc2c(=O)n1CCc1ccc(S(N)(=O)=O)cc1)C(=O)Nc1ccc(Cl)cc1 (stereo not given)", "SNB-19 CNS", "NO"),
    ("NNC(=O)c1ccc(-n2nc(-c3ccccc3)c3ccccc32)cc1", "SNB-19 CNS", "YES"),
    ("COc1cc2nc(-c3ccc(C(F)(F)F)cc3)cc(OCCCN3CCCC3)c2cc1OC", "SNB-19 CNS", "YES"),
]

Attention now shifts to the item below.
growth under 70%? Item: `C/C(=N\NC(=O)CSc1nc2ccccc2c(=O)n1Cc1ccc(S(N)(=O)=O)cc1)c1ccc(F)cc1`
NO

====

- System: U251 CNS
- experiment.notes: NCI-60 one-dose screen, 48 h
- run.parameters: 10 µM unless noted
About 83,000 compounds went through this panel and 20% of them were active in at least one assay; those are over-represented in the sample as a whole. The source made the active and inactive calls. How the source made its calls: active means growth percent below 10; inactive means the rest.
Can you answer with just one of these options? Y for active, N for inactive

Completed entries (count: 5):
# molecule, subject.of.test, assigned.label
measured = [
    ("C=C1C(=O)O[C@H]2[C@H]1CC/C(CNC(=O)/C=C/c1ccccc1)=C\\CC[C@@]1(C)O[C@@H]21", "U251 CNS", "N"),
    ("N#CC1=C(/N=C/c2ccccc2)Oc2c(ccc3ccccc23)C1c1ccc([N+](=O)[O-])cc1 (configuration not stated)", "U251 CNS", "N"),
    ("Cc1c2cc[nH]c(=O)c2c(C)c2c1[nH]c1cc(OCCN3CCN(C)CC3)ccc12", "U251 CNS", "N"),
    ("N#CC(C(=O)/C(=N/NC(=O)c1ccccc1O)C(C#N)c1ccccc1)c1ccccc1 (configuration not stated)", "U251 CNS", "Y"),
    ("CCN(CC)CCOc1ccc(NC(=O)C(C(C)C)N2C(=O)/C(=C/c3ccc(Br)cc3)SC2=S)cc1 (configuration not stated)", "U251 CNS", "N"),
]

Attention now shifts to the item below.
I would be grateful if you could indicate the recorded call for `O=C(Cn1c[n+](CC(=O)c2ccc([N+](=O)[O-])cc2)c2ccccc21)Nc1cccc2cccnc12` .
N

====

- System: OVCAR-3 ovarian
- experiment.notes: NCI-60 one-dose screen, 48 h (100 = growth as untreated, 0 = no growth, -100 = all killed)
- run.parameters: 10 µM unless noted
Compounds without any hit were thinned out: in the full panel of roughly 83,000, 20% have a hit.
reported.endpoint: growth (%)
Report as a plain number; the unit % is understood.

# compound, growth, %
rows = [
    ("Cn1cc(-c2nc(-c3c[nH]c4c(Cl)nccc34)cs2)c2cc(F)ccc21", 114),
    ("O=C1C=CC(=O)N1c1cccc(Cl)c1", 90.1),
    ("COc1cc2nc(-c3ccc(Cl)cc3)cc(OCCCN3CCCCC3)c2cc1OC", 72),
    ("CN(C)CCC(=O)c1ccc([N+](=O)[O-])cc1", 110),
    ("Cn1c(-c2c(N)n(CCCN3CCOCC3)c3nc(C#N)c(C#N)nc23)nc2ccccc21", 65.5),
    ("[O-][n+]1c(Cl)cc(Cl)c2ccccc21", 93.7),
]

Please give the measured growth for this compound: `O=[N+]([O-])c1ccc(N=Nc2cc(S(=O)(=O)O)c3cccc(S(=O)(=O)O)c3c2O)cc1`
121

Another: `CCCCOc1ccc(/C=N/Nc2cc(C)nc3ccc(Br)cc23)cc1`
-53

Another: C/C=C(\C)C(=O)NC1=CC[C@@]2(C)C(=CCC3C2CC[C@@]2(C)C3CC[C@@H]2C(C)N(C)C)C1=O (some centres undefined)
29.3

====

Quick list: growth per entry.
- Test system: COLO 205 colon
- experiment.notes: NCI-60 one-dose screen, 48 h (100 = growth as untreated, 0 = no growth, -100 = all killed)
- run.parameters: 10 µM unless noted
The panel holds about 83,000 compounds, 20% with a hit somewhere; the sample as a whole holds those more often.
Report as a plain number; the unit % is understood.

# compound, unit.string, observed.measurement
data = [
    ("CCCOc1ccc(/C=N/Nc2cc(C)nc3ccc(Br)cc23)cc1", "%", 44.8),
]

Look up growth with COLO 205 colon for this compound: `Cc1cc2cc3ccc(N(C)C)cc3nc2cc1N`
-67.7

Another: `O=C1/C=C/[C@@H](O)[C@@H]2C[C@@H](O)C[C@H]2/C=C/CCC[C@H](CCc2cccc3ccccc23)O1`
-91.9

Another: CN(C)CC(O)c1ccc(/C=C/c2ccc(Cl)cc2)cc1 (centres undefined)
-46.4

Another: `O=C(CCN1CCCC1)Nc1ccc2c(NCCCCc3ccccc3)c3ccccc3nc2c1`
-47.1

Another: `C=C(C)[C@@H]1CC[C@]2(C(=O)N3CCN(C)CC3)CC[C@]3(C)[C@H](CC[C@@H]4[C@@]5(C)CC[C@H](OCCC#N)C(C)(C)[C@@H]5CC[C@]43C)[C@@H]12`
50.3

Another: `Cc1c2cc[nH]c(=O)c2c(C)c2c1[nH]c1cc(OCCN3CCN(C)CC3)ccc12`
-10.1

Another: `CCCCCCNC(=O)Nc1ccc2cc3ccc(NC(=O)NCCCCCC)cc3nc2c1`
17.5

Another: `CCC(=O)Oc1ccc(/C(=C(\C)c2ccccc2)c2ccc(OCCN3CCCCC3)cc2)cc1`
32.7

Another: `O=[N+]([O-])c1ccc(N=Nc2cc(S(=O)(=O)O)c3cccc(S(=O)(=O)O)c3c2O)cc1`
127

Another: `OCc1cnc2ccccc2c1NC1CCCCCC1`
110

Another: `N#C/C(=C\c1ccc(Cl)cc1)n1nnc2cc(F)c(F)cc21`
8.61

Another: `CCOC(=O)[C@@H]1CCCN(S(=O)(=O)c2ccc(S(=O)(=O)N(CC)CC)c(F)c2)C1`
83.9

Another: COc1cc2c(c(OC)c1OC)CCC(c1cccc(NC(=O)c3cccc(Br)c3)c1)O2 (centres undefined)
98.3
